Consider the following compounds; for each one, report its SI CC50/EC50.
tested on: rgRSV224 virus; assay: microbe, parasite or virus in culture; type: cell-based, respiratory syncytial virus (RSV); settings: Table 2; selectivity index, CC50 (HeLa cytotoxicity) / EC50 (rgRSV224)

Name the recorded SI CC50/EC50 for O=c1n(Cc2cc3cc(Cl)ncc3n2CCCCF)c2cnccc2n1C1CC1 .
>9387

Try this compound next: Cc1c(Cn2c(=O)n(C3CC3)c3ccncc32)n(CCCC(F)(F)F)c2ccncc12
>73885

Try this compound next: O=c1n(Cc2cc3nc(C(F)(F)F)ccc3n2CCCCF)c2cnccc2n1C1CC1
>755

Try this compound next: O=c1n(Cc2c(Cl)c3cnccc3n2CCCC(F)(F)F)c2cnccc2n1C1CC1
>20007

Try this compound next: CS(=O)(=O)CCCn1c(Cn2c(=O)n(CC(F)(F)F)c3ccc(F)cc32)cc2cnccc21
>162986

Try this compound next: CS(=O)(=O)CCCn1c(Cn2c(=O)n(CC(F)(F)F)c3ccncc32)cc2nc(Cl)ccc21
>119028

Try this compound next: O=c1n(Cc2cc3nc(Cl)ccc3n2CCCCF)c2cnccc2n1C1CC1
17031

Try this compound next: N#CCCCn1c(Cn2c(=O)n(C3CC3)c3ccncc32)cc2nc(Cl)ccc21
>6232

Try this compound next: CS(=O)(=O)CCCn1c(Cn2c(=O)n(C3CC3)c3ccncc32)cc2nc(Cl)ccc21
>17372

Try this compound next: O=c1n(Cc2cc3nc(Cl)ccc3n2CCCCO)c2cnccc2n1CC(F)(F)F
>4946

Try this compound next: CC(C)CCn1c(Cn2c(=O)n(C3CC3)c3ccncc32)cc2cnccc21
294002

Try this compound next: CS(=O)(=O)CCCn1c(Cn2c(=O)n(C3COC3)c3ccncc32)cc2nc(Cl)ccc21
>14674

Try this compound next: O=c1n(Cc2cc3nc(Cl)ccc3n2CCCC(F)(F)F)c2cnccc2n1CC(F)(F)F
>34306

Try this compound next: CS(=O)(=O)CCCn1c(Cn2c(=O)n(C3CC3)c3ccncc32)cc2cnccc21
>102089

Try this compound next: CC(C)CCn1c(Cn2c(=O)n(C3CC3)c3ccccc32)cc2nc(Cl)ccc21
>388

Try this compound next: CC(C)CCn1c(Cn2c(=O)n(C3CC3)c3ccncc32)cc2nc(Cl)ccc21
>1286

Try this compound next: O=c1n(Cc2cc3cnccc3n2CCCCF)c2cnccc2n1C1CC1
>186574

Try this compound next: O=c1n(Cc2cc3cc(Cl)ncc3n2CCCC(F)(F)F)c2cc(F)ccc2n1CC(F)(F)F
>5823

Try this compound next: O=c1n(Cc2cc3cc(Cl)ncc3n2CCCC(F)(F)F)c2cnccc2n1CC(F)(F)F
>106591

Try this compound next: O=c1n(Cc2cc3cnccc3n2CCCC(F)(F)F)c2cnccc2n1C1CC1
>405210

Try this compound next: O=c1n(Cc2c(I)c3cnccc3n2CCCC(F)(F)F)c2cnccc2n1C1CC1
21638

Try this compound next: O=c1n(Cc2c(F)c3cnccc3n2CCCC(F)(F)F)c2cnccc2n1C1CC1
>3416

Try this compound next: CS(=O)(=O)CCCn1c(Cn2c(=O)n(CC(F)(F)F)c3ccc(F)cc32)c(Br)c2cnccc21
307

Try this compound next: O=c1n(Cc2cc3nc(Cl)ccc3n2CCCCF)c2cc(F)ccc2n1CC(F)(F)F
>720

Try this compound next: O=c1n(Cc2cc3nc(Cl)ccc3n2CCCC(F)(F)F)c2ccccc2n1C1CC1
1291

The origin of these recorded values is patent US9051317B2.
